# System: sNF96.2 malignant peripheral nerve sheath tumor (MPNST) cells
# test: Cytotoxicity against sNF96.2 MPNST cells
# Type: cell-based
# Description: The biochemical and biological effects of LLS30 on sNF96.2 and sNF2.2 malignant peripheral nerve sheath tumor (MPNST) cells were evaluated.
measure: IC50 (µM)

{"compound": "NC(=O)CC(NCc1ccc(Cl)c(Cl)c1)c1ccc2c(c1)nc(-c1ccc(N(CCO)CCO)cc1)n2Cc1ccc(Cl)c(Cl)c1 (stereo not shown)", "measured_value": 16}

---

# System: PC3 prostate cancer cells
# test: Cell viability of prostate cancer PC3 cells after 72 hours treatment
# Format: cell-based
# conditions_used: Homo sapiens, PC-3, 20 μM
Consider the following compounds and their measured viability at 20 µM readings.
measure: viability at 20 µM (%)

{"compound": "CC(=O)OCCN(CCO)c1ccc(-c2nc3cc(C(CC(N)=O)NCc4ccc(-c5ccn[nH]5)s4)ccc3n2CCCN(C)C)cc1 (stereo not shown) [LLS66]", "measured_value": 79}
{"compound": "NC(=O)CC(NCc1ccc(-c2ccncc2)cc1)c1ccc2c(c1)nc(-c1ccc(N(CCO)CCO)cc1)n2CCCn1ccnc1 (stereo not shown) [LLS58]", "measured_value": 74}
{"compound": "CC(=O)OCCN(CCOC(C)=O)c1ccc(-c2nc3cc(C(CC(N)=O)NCc4ccc(-c5ccncc5)cc4)ccc3n2CCCn2ccnc2)cc1 (stereo not shown) [LLS58Ac]", "measured_value": 83}
{"compound": "NCCn1c(-c2ccc(N(CCO)CCO)cc2)nc2cc(C(CC(N)=O)NCc3ccc(Br)s3)ccc21 (stereo not shown) [LLS45]", "measured_value": 117}
